molecular target: human 5-HT2AR (Homo sapiens); assay: radioligand binding (NIMH PDSP)
Sequence (P28223 whole entry): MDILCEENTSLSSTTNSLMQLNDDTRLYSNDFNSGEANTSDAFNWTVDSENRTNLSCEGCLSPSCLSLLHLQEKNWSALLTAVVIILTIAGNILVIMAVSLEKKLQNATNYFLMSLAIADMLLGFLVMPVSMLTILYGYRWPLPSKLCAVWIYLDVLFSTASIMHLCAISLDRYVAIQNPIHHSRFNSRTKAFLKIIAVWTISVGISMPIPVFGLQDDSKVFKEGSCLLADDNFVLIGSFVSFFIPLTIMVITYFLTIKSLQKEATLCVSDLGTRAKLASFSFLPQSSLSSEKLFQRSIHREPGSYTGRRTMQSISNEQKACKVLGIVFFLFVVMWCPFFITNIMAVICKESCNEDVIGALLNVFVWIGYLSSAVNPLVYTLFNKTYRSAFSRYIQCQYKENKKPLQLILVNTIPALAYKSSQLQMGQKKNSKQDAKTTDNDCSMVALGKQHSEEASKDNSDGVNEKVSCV
Reported Ki is given for each of the following molecules.
Lab book: enter the figure in µM, no units written.

In [3]: df
Out[3]:
                                   molecule                   measured_on  measure_name  measured_number
0  CCN(CC)Cc1nc2ccccc2n1Cc1ccc(Cl)cc1 [Compound 24]  human 5-HT2AR (Homo sapiens)            Ki             1.26

I have this molecule here, Clc1ccc(Cn2c(CN3CCCC3)cc3ccccc32)cc1 [Compound 11] , and I need its recorded Ki. 0.631

I have this molecule here, CC(C)(C)OC(=O)N1CCN(Cc2nc3ccccc3n2Cc2ccc(Cl)cc2)CC1 [Compound 25] , and I need its recorded Ki. 2.38
